# System: HEK-293T
# assay.protocol: Incucyte cell viability with HEK293T; note: filed as whole numbers so only -1 and 0 and 1 occur
# Type: toxicity, cell-based
# test.settings: human, 12 h, 10 µM, compound concentration 10 uM, replicate number 1, timepoint 12 hours
readout.type: Growth Rate
Give only the figure.

Query block: Entry CCOCCn1cc(C(=O)Nc2ccc(-n3nc(-c4cccnc4)cc3C(F)(F)F)cn2)ccc1=O [BI 1935] has what Growth Rate?
Result block: 0

Query block: // returns reported Growth Rate for input "COc1cc(-c2cn([C@H]3CCc4c(F)cccc4N(CC(F)(F)F)C3=O)nn2)ccc1-n1cnc(C)c1"
Result block: 0

Query block: Sample Cc1cccc([C@H](C)c2c[nH]cn2)c1C.Cl [DEXMEDETOMIDINE HYDROCHLORIDE] — what was its Growth Rate?
Result block: 0

Query block: Report Growth Rate for Cn1c(-c2csc(C3CCN(CC4=NC5N=CC=CC5N4)CC3)n2)nc2ccccc21 (centres undefined) [BAY-070] please.
Result block: 0

Query block: What Growth Rate value was documented for this compound, Cc1c(-c2ccc(O)cc2)n(Cc2ccc(OCCN3CCCCCC3)cc2)c2ccc(O)cc12 [BAZEDOXIFENE] ?
Result block: 0

Query block: // Growth Rate lookup, key: O=C(NCCCC1CCCCC1)c1ccc(CNC(=O)c2cnn(-c3ccccc3)c2C(F)(F)F)cc1 [SR-321]
Result block: 0

Query block: I would be grateful if you could share the reported Growth Rate for N#CC(Cc1ccc(O)cc1)c1ccc(O)cc1 (centres undefined) [DIARYLPROPIONITRILE] .
Result block: 0

Query block: GET /values?readout=Growth Rate&item= O=c1nc(-c2ccccn2)sc2ccccc12 [BTZO-1]
Result block: 1

Query block: Report Growth Rate for "CS(=O)(=O)c1cccc(NC(=O)N(Cc2ccc(C(=O)Nc3nn[nH]n3)cc2)c2ccc(C3CCCCC3)cc2)c1" please.
Result block: 1

====

# Test system: HEK-293T
# assay.protocol: Multiplex assay against HEK293T
# Format: toxicity, cell-based
# test.settings: human, 12 h, 1 µM, compound concentration 1 uM, replicate 1
For each record, write down the corresponding Total Cell Count.
Form field (numeric): enter value without unit.

Query block: Please provide the recorded Total Cell Count for "CNc1nc(NCc2ccc(NS(C)(=O)=O)cc2Cl)cc(-c2ccccn2)n1" , tested on HEK-293T.
Result block: 203

Query block: Notebook: pull reported Total Cell Count for HEK-293T, entry "C=CC(=O)Nc1cccc(C(=O)Nc2ccc(Nc3cc(-c4[nH]c(SC)nc4C)ccn3)cc2)c1"
Result block: 327

Query block: So what Total Cell Count did "Cc1[nH]c(/C=C2\C(=O)Nc3ccc(S(=O)(=O)N(C)c4cccc(Cl)c4)cc32)c(C)c1C(=O)N1CCN(C)CC1" get with HEK-293T?
Result block: 198

Query block: Lookup: Total Cell Count / HEK-293T / "CC(C)(O)CNc1ncc(-c2ccnc(Nc3ccnc(Cl)c3)n2)c(CC2CC2)n1"
Result block: 287

Query block: Look up Total Cell Count with HEK-293T for this molecule: "Cn1cc(-c2[nH]c3cc(NC(=O)[C@H](N)C4CCCCC4)cc4c3c2C=NNC4=O)cn1"
Result block: 344

====

Assignment: determine reported Population Healthy Nuclei (%) for the given compounds.
# Test system: Fibroblast
# assay.protocol: Multiplex assay against human fibroblast
# Format: toxicity, cell-based
# test.settings: 12 h, 10 µM, compound concentration 10 uM, replicate 1
Enter your answer as a number in %; do not include the unit.

Query block: Entry under review: CN(C)C(=O)N[C@H]1CC[C@H](CCN2CCN(c3cccc(Cl)c3Cl)CC2)CC1.Cl [CARIPRAZINE HYDROCHLORIDE] . Reported Population Healthy Nuclei (%)?
Result block: 38

Query block: What measured Population Healthy Nuclei (%) goes with "CCN(CC)CCCCNc1ncc2cc(-c3cc(OC)cc(OC)c3)c(NC(=O)NC(C)(C)C)nc2n1" ?
Result block: 34

Query block: Could you share which Population Healthy Nuclei (%) value was measured for "CNc1nc(NCc2ccc(NS(C)(=O)=O)cc2Cl)cc(-c2ccccn2)n1" ?
Result block: 39

Query block: Given the compound "C[C@@]1(C(=O)Nc2ccc(F)nc2)CCCN1c1nc(Nc2cc(C3CC3)n[nH]2)c2cccn2n1" , what is its reported Population Healthy Nuclei (%)?
Result block: 42

====

# Test system: HEK-293T
# assay.protocol: Multiplex assay against HEK293T
# Type: toxicity, cell-based
# test.settings: human, 48 h, 1 µM, compound concentration 1 uM, replicate 1
readout.type: Total Cell Count
Enter a number only.

Query block: Name the recorded Total Cell Count for "CC[C@H](C)C(=O)O[C@H]1C[C@@H](C)C=C2C=C[C@H](C)[C@H](CC[C@@H]3C[C@@H](O)CC(=O)O3)[C@H]21" .
Result block: 205

Query block: Entry "C=CC(=O)Nc1cccc(C(=O)Nc2ccc(Nc3cc(-c4[nH]c(SC)nc4C)ccn3)cc2)c1" : reported Total Cell Count = ?
Result block: 393

Query block: If you can, please state the reported Total Cell Count value of C[C@@H](NCCCc1cccc(C(F)(F)F)c1)c1cccc2ccccc12.Cl [CINACALCET HYDROCHLORIDE] .
Result block: 730

Query block: Fill blank: measured Total Cell Count of the compound "Cc1c(-c2ccc(O)cc2)n(Cc2ccc(OCCN3CCCCCC3)cc2)c2ccc(O)cc12" is ____.
Result block: 275

Query block: Recorded Total Cell Count of "COc1cc(-n2cnc3cc(-c4ccc(Cl)cc4)sc3c2=O)ccc1OCCN1CCCC1" , please.
Result block: 312

Query block: Look up Total Cell Count for this compound: CC(C)NCC(O)COc1ccc(CCOCC2CC2)cc1.Cl (stereo not given) [BETAXOLOL HYDROCHLORIDE]
Result block: 701

Query block: Fill in: Total Cell Count of "COc1ncc(-c2ccc3nccc(-c4ccnnc4)c3c2)cc1NS(=O)(=O)c1ccc(F)cc1F" is ___
Result block: 286

Query block: What does the data say about its Total Cell Count? Entry: "c1cn2cc(-c3ccc4cn[nH]c4c3)nc(Nc3ccc(N4CCOCC4)cc3)c2n1"
Result block: 307

Query block: Bench note: what Total Cell Count did "CN1CCN(c2ccc(OC(F)(F)F)c(Nc3ncc4c(n3)-c3c(c(C(N)=O)nn3CCO)CC4)c2)CC1" show?
Result block: 213

Query block: # query: Total Cell Count of entry "CN1CCN(CCOc2cc(OC3CCOCC3)c3c(Nc4c(Cl)ccc5c4OCO5)ncnc3c2)CC1"
Result block: 448

====

# System: Fibroblast
# assay.protocol: Multiplex assay against human fibroblast
# Format: toxicity, cell-based
# test.settings: 24 h, 1 µM, compound concentration 1 uM, replicate 1
Threshold check on Population Apoptotic (%): strictly below 60% is Satisfied; on or above 60% is Not satisfied.

Query block: Lab note: confirm whether the reported Population Apoptotic (%) for this compound is below 60%, equality not counting. compound: CN(C)CC#Cc1ccc(OCCCc2sc(N3CCc4cccc(C(=O)Nc5nc6ccccc6s5)c4C3)nc2C(=O)O)c(F)c1 [A-1155463]
Result block: Not satisfied

Query block: Here's an entry: C[C@@H](NCCCc1cccc(C(F)(F)F)c1)c1cccc2ccccc12.Cl [CINACALCET HYDROCHLORIDE] . Is its Population Apoptotic (%) below 60%?
Result block: Satisfied

Query block: Is Population Apoptotic (%) strictly under 60% for the entry "Cc1cc(C)cc(-c2cnc3cc(Cl)c(-c4cccc(O)c4)cc3c2OCCCN)c1" ?
Result block: Satisfied

Query block: Please indicate whether the reported Population Apoptotic (%) of "Cn1cc(-c2[nH]c3cc(NC(=O)[C@H](N)C4CCCCC4)cc4c3c2C=NNC4=O)cn1" is strictly below 60%.
Result block: Satisfied

Query block: Hello, is Population Apoptotic (%) of the following compound strictly smaller than 60%? CN1CCN(c2ccc(OC(F)(F)F)c(Nc3ncc4c(n3)-c3c(c(C(N)=O)nn3CCO)CC4)c2)CC1 [ONVANSERTIB]
Result block: Satisfied

Query block: Lab note: confirm whether the reported Population Apoptotic (%) for this compound is below 60%, equality not counting. compound: "COc1cc(-n2cnc3cc(-c4ccc(Cl)cc4)sc3c2=O)ccc1OCCN1CCCC1"
Result block: Satisfied

Query block: Report whether reported Population Apoptotic (%) is lower than 60% (strictly) for Cc1nc(Nc2n[nH]c3c2CN(C(=O)N[C@H](CN(C)C)c2ccccc2)C3(C)C)c2sccc2n1 [PF-03758309]
Result block: Not satisfied

====

# Tested on: U2OS
# assay.protocol: Multiplex assay against U2OS
# Assay type: toxicity, cell-based
# test.settings: human, 12 h, 10 µM, compound concentration 10 uM, replicate 1
I'd appreciate it if you could supply Population Normal (%) values for the items below.
Express your answer in %, writing the number without its unit.

Query block: For Cl.N#Cc1ccc2[nH]cc(CCCCN3CCN(c4ccc5oc(C(N)=O)cc5c4)CC3)c2c1 [VILAZODONE HYDROCHLORIDE] , what is its reported Population Normal (%)?
Result block: 81

Query block: Entry "CCN(CC)CCCCNc1ncc2cc(-c3cc(OC)cc(OC)c3)c(NC(=O)NC(C)(C)C)nc2n1" has what Population Normal (%)?
Result block: 80

Query block: Recorded Population Normal (%) of CN1CCCC(n2nc(Cc3ccc(Cl)cc3)c3ccccc3c2=O)CC1.Cl (stereo not drawn) [AZELASTINE HYDROCHLORIDE] , please.
Result block: 87

Query block: Please report the recorded Population Normal (%) for C[C@@H](NCCCc1cccc(C(F)(F)F)c1)c1cccc2ccccc12.Cl [CINACALCET HYDROCHLORIDE] .
Result block: 90

Query block: Look up Population Normal (%): "COc1ccc(Oc2cc(NCCC(F)(F)F)c3ncc(-c4ccc(C(=O)NC5CC5)c(C)c4)n3n2)c(F)c1F"
Result block: 95

Query block: May I ask what Population Normal (%) has been recorded for "Cc1c(-c2ccc(O)cc2)n(Cc2ccc(OCCN3CCCCCC3)cc2)c2ccc(O)cc12" ?
Result block: 95

Query block: What measured Population Normal (%) goes with "COc1cc(-n2cnc3cc(-c4ccc(Cl)cc4)sc3c2=O)ccc1OCCN1CCCC1" ?
Result block: 90

Query block: Can you look up the measured Population Normal (%) of CC(C)NCC(O)COc1ccc(CCOCC2CC2)cc1.Cl (stereo not drawn) [BETAXOLOL HYDROCHLORIDE] for me?
Result block: 94
